Biological target: DNA gyrase (Escherichia coli) (UniProt P0AES6+P0AES4)
Assay: In vitro concentration inhibiting DNA gyrase induced cleavage in Escherichia coli H560.
Assay type: functional
Please assign false (0) whenever Cleavage is at or above 0.8 µg/mL, and true (1) whenever it is below.

Examples with answers:
Does the reported Cleavage of the following compound sit strictly below 0.8 µg/mL? Cl.N[C@@H]1CCN(c2c(F)cc3c(=O)c(C(=O)O)cn(C4CC4)c3c2F)C1.O true (1)

Does the reported Cleavage of the following compound sit strictly below 0.8 µg/mL? Cl.NCC(=O)NC1CCN(c2c(F)cc3c(=O)c(C(=O)O)cn(C4CC4)c3c2F)C1.O (centres undefined) false (0)

Does the reported Cleavage of the following compound sit strictly below 0.8 µg/mL? Cl.Nc1c(F)c(N2CC[C@H](N)C2)c(F)c2c1c(=O)c(C(=O)O)cn2C1CC1.O true (1)

New cases:
Does the reported Cleavage of the following compound sit strictly below 0.8 µg/mL? Cl.NC1CCN(c2cc3c(cc2F)c(=O)c(C(=O)O)cn3C2CC2)C1.O (centres undefined) true (1)

Does the reported Cleavage of the following compound sit strictly below 0.8 µg/mL? Nc1c(F)c(N2CCC(N)C2)c(F)c2c1c(=O)c(C(=O)O)cn2C1CC1 (centres undefined) true (1)

---

System: Mus musculus
Assay: In vivo potency against acute systemic infection in mouse caused by Streptococcus pyogenes C-203 on subcutaneous injection
Format: functional
Conditions: sc, read-out: PD50
Overview of reported ED50 across a group of compounds:
The answer is to be given in mg/kg; state only the numeric part.

// fetch ED50 given entry C[C@H](N)C(=O)NC1CCN(c2c(F)cc3c(=O)c(C(=O)O)cn(C4CC4)c3c2F)C1.Cl.O (stereo not given in full) 4

// fetch ED50 given entry C[C@H](N)C(=O)N[C@H]1CCN(c2nc3c(cc2F)c(=O)c(C(=O)O)cn3C2CC2)C1.Cl.O 10

// fetch ED50 given entry CC(C)[C@H](N)C(=O)NC1CCN(c2nc3c(cc2F)c(=O)c(C(=O)O)cn3C2CC2)C1.Cl.O (stereo not given in full) 27

// fetch ED50 given entry NC1CCN(c2nc3c(cc2F)c(=O)c(C(=O)O)cn3C2CC2)C1 (stereo not given) 14

Then this compound:
// fetch ED50 given entry Nc1c(F)c(N2CCC(N)C2)c(F)c2c1c(=O)c(C(=O)O)cn2C1CC1 (stereo not given) 6

---

Assay: Solubility (at pH 7.4)
Format: physicochemical
Conditions: buffer, read-out: S
reported-property: solubility (µg/mL)
The answer is to be given in µg/mL; state only the numeric part.

// fetch solubility given entry C[C@@H]1CN(c2c(F)c(N)c3c(=O)c(C(=O)O)cn(C4CC4)c3c2F)C[C@H](C)N1 10

// fetch solubility given entry CC(C)[C@H](N)C(=O)NC1CCN(c2nc3c(cc2F)c(=O)c(C(=O)O)cn3C2CC2)C1.Cl.O (some centres not stated) 80

// fetch solubility given entry NC1CCN(c2nc3c(cc2F)c(=O)c(C(=O)O)cn3-c2ccc(F)cc2F)C1 (configuration not stated) 100

// fetch solubility given entry Cl.N[C@@H](Cc1ccccc1)C(=O)NC1CCN(c2cc3c(cc2F)c(=O)c(C(=O)O)cn3C2CC2)C1.O (some centres not stated) 300

New cases:
// fetch solubility given entry Cl.Nc1c(F)c(N2CC[C@H](N)C2)c(F)c2c1c(=O)c(C(=O)O)cn2C1CC1.O 50

// fetch solubility given entry C[C@H](N)C(=O)N[C@H]1CCN(c2c(F)cc3c(=O)c(C(=O)O)cn(C4CC4)c3c2F)C1.Cl.O 70

// fetch solubility given entry C[C@@H](N)C(=O)NC1CCN(c2cc3c(cc2F)c(=O)c(C(=O)O)cn3C2CC2)C1.Cl.O (some centres not stated) 240

---

Test: Solubility (at pH 7.4)
Type: physicochemical
Settings: buffer
reported-property: solubility (µg/mL)
The answer is to be given in µg/mL; state only the numeric part.

// fetch solubility given entry Cl.NCCCC[C@H](N)C(=O)NC1CCN(c2nc3c(cc2F)c(=O)c(C(=O)O)cn3C2CC2)C1.O (stereo partly specified) 70

---

Experiment: Solubility (at pH 4)
Format: physicochemical
Settings: buffer, read-out: S
reported-property: log10 solubility (log10 of the value in mg/mL)
Annotation: log10 of solubility, mg/mL basis.

Use the examples below as a reference point.
// fetch log10 solubility given entry C[C@H](N)C(=O)N[C@@H]1CCN(c2c(F)cc3c(=O)c(C(=O)O)cn(C4CC4)c3c2F)C1.Cl.O 1.48

// fetch log10 solubility given entry Cl.NCC(=O)NC1CCN(c2c(F)c(N)c3c(=O)c(C(=O)O)cn(C4CC4)c3c2F)C1.O (stereo not drawn) 1.84

// fetch log10 solubility given entry C[C@@H](N)C(=O)NC1CCN(c2nc3c(cc2F)c(=O)c(C(=O)O)cn3C2CC2)C1.Cl.O (stereo partly drawn) 2.42

// fetch log10 solubility given entry Nc1c(F)c(N2CCC(N)C2)c(F)c2c1c(=O)c(C(=O)O)cn2C1CC1 (stereo not drawn) 0.51

Then this compound:
// fetch log10 solubility given entry C[C@@H]1CN(c2c(F)c(N)c3c(=O)c(C(=O)O)cn(C4CC4)c3c2F)C[C@H](C)N1 -1.52

---

Assay: Solubility (at pH 7.4)
Assay type: physicochemical
Details: buffer, read-out: S
reported-property: solubility (µg/mL)
The answer is to be given in µg/mL; state only the numeric part.

Use the examples below as a reference point.
// fetch solubility given entry Nc1c(F)c(N2CCC(N)C2)c(F)c2c1c(=O)c(C(=O)O)cn2C1CC1 (stereo not drawn) 80

// fetch solubility given entry Cl.NC1CCN(c2c(F)cc3c(=O)c(C(=O)O)cn(C4CC4)c3c2F)C1 (stereo not drawn) 80

Then this compound:
// fetch solubility given entry C[C@H](N)C(=O)N[C@H]1CCN(c2c(F)c(N)c3c(=O)c(C(=O)O)cn(C4CC4)c3c2F)C1.Cl.O 40

---

Test: Solubility (in 0.1 N HCl)
Format: physicochemical
Conditions: read-out: S
reported-property: solubility (µg/mL)
The answer is to be given in µg/mL; state only the numeric part.

// fetch solubility given entry NC(=O)CC[C@H](N)C(=O)NC1CCN(c2nc3c(cc2F)c(=O)c(C(=O)O)cn3C2CC2)C1 (some centres not stated) 1400

// fetch solubility given entry C[C@H](N)C(=O)N[C@@H]1CCN(c2c(F)cc3c(=O)c(C(=O)O)cn(C4CC4)c3c2F)C1.Cl.O 6000

// fetch solubility given entry C[C@@H](N)C(=O)NC1CCN(c2c(F)cc3c(=O)c(C(=O)O)cn(C4CC4)c3c2F)C1.Cl.O (some centres not stated) 3600

// fetch solubility given entry Cl.N[C@@H](Cc1ccccc1)C(=O)NC1CCN(c2cc3c(cc2F)c(=O)c(C(=O)O)cn3C2CC2)C1.O (some centres not stated) 9200

// fetch solubility given entry Cl.NC1CCN(c2c(F)cc3c(=O)c(C(=O)O)cn(C4CC4)c3c2F)C1 (configuration not stated) 3000

// fetch solubility given entry C[C@H](N)C(=O)N[C@H]1CCN(c2c(F)c(N)c3c(=O)c(C(=O)O)cn(C4CC4)c3c2F)C1.Cl.O 2800

// fetch solubility given entry C[C@@H](N)C(=O)NC1CCN(c2nc3c(cc2F)c(=O)c(C(=O)O)cn3C2CC2)C1.Cl.O (some centres not stated) 189000

// fetch solubility given entry Cl.Nc1c(F)c(N2CC[C@@H](N)C2)c(F)c2c1c(=O)c(C(=O)O)cn2C1CC1.O 200

New cases:
// fetch solubility given entry Cl.Nc1c(F)c(N2CC[C@H](N)C2)c(F)c2c1c(=O)c(C(=O)O)cn2C1CC1.O 250

// fetch solubility given entry NC1CCN(c2nc3c(cc2F)c(=O)c(C(=O)O)cn3-c2ccc(F)cc2F)C1 (configuration not stated) 400

// fetch solubility given entry Cl.NCC(=O)NC1CCN(c2c(F)c(N)c3c(=O)c(C(=O)O)cn(C4CC4)c3c2F)C1.O (configuration not stated) 3500

---

Assay: Solubility (in 0.1 N HCl)
Assay type: physicochemical
Details: read-out: S
Please mark Y if the recorded solubility is equal to or greater than 3000 µg/mL, and N if it falls below.

Examples with answers:
Hello, I need to know if Cl.N[C@@H](Cc1ccccc1)C(=O)NC1CCN(c2c(F)cc3c(=O)c(C(=O)O)cn(C4CC4)c3c2F)C1.O (stereo partly drawn) has measured solubility not below 3000 µg/mL. Thanks! Y

Hello, I need to know if C[C@H](N)C(=O)NC1CCN(c2nc3c(cc2F)c(=O)c(C(=O)O)cn3C2CC2)C1.Cl.O (stereo partly drawn) has measured solubility not below 3000 µg/mL. Thanks! Y

New cases:
Hello, I need to know if C[C@@H]1CN(c2c(F)c(N)c3c(=O)c(C(=O)O)cn(C4CC4)c3c2F)C[C@H](C)N1 has measured solubility not below 3000 µg/mL. Thanks! N

Hello, I need to know if Cl.NCC(=O)NC1CCN(c2c(F)cc3c(=O)c(C(=O)O)cn(C4CC4)c3c2F)C1.O (stereo not drawn) has measured solubility not below 3000 µg/mL. Thanks! Y

Hello, I need to know if C[C@H](N)C(=O)NC1CCN(c2c(F)cc3c(=O)c(C(=O)O)cn(C4CC4)c3c2F)C1.Cl.O (stereo partly drawn) has measured solubility not below 3000 µg/mL. Thanks! Y

Hello, I need to know if Nc1c(F)c(N2CCC(N)C2)c(F)c2c1c(=O)c(C(=O)O)cn2C1CC1 (stereo not drawn) has measured solubility not below 3000 µg/mL. Thanks! N

Hello, I need to know if Cl.N[C@@H](Cc1ccccc1)C(=O)NC1CCN(c2nc3c(cc2F)c(=O)c(C(=O)O)cn3C2CC2)C1.O (stereo partly drawn) has measured solubility not below 3000 µg/mL. Thanks! Y

Hello, I need to know if C[C@H](N)C(=O)N[C@@H]1CCN(c2c(F)c(N)c3c(=O)c(C(=O)O)cn(C4CC4)c3c2F)C1.Cl.O has measured solubility not below 3000 µg/mL. Thanks! Y

Origin of measurements: ChEMBL document CHEMBL1126036
